# System: H. contortus xL3s
# ASSAY: Cell lethality in xL3s (Sytox Green staining)
# Assay type: cell-based, Haemonchus contortus
# CONDITION_SUMMARY: Haemonchus contortus, 90 h; read-out: IC50 (lethality, inducing cell death in xL3s)
pIC50: −log10 of the molar value.
RECORDED_ENDPOINT: pIC50

INSERT INTO measurements (smiles_str, recorded_endpoint, endpoint_value) VALUES
  ('CCCc1ccc(-c2nc(-c3cccs3)no2)cc1', 'pIC50', 4.46);

----------
# System: H. contortus xL3 to L4 development
# ASSAY: High throughput screen, larval development and phenotype at 168 h
# Format: cell-based, Haemonchus contortus
# CONDITION_SUMMARY: Haemonchus contortus, development to L4
RECORDED_ENDPOINT: inhibition at 20 µM

INSERT INTO measurements (compound, endpoint_value) VALUES
  ('C(#Cc1ccc(-c2ccn[nH]2)cc1)c1ccccc1', '100%'),
  ('N#Cc1c(Cl)c(Cl)c(Cl)c(Cl)c1C#N', '< 80%'),
  ('O=C(C=CSc1ccc(Cl)cc1)c1cccs1', '100%'),
  ('c1ccc(COc2ccc(CCC3OCCO3)cc2)cc1 [MBHF-hit32, 2-[4-(benzyloxy)phenethyl]-1,3-dioxolane]', '< 80%'),
  ('Nc1ccccc1C(=O)N1CCN(c2ccc([N+](=O)[O-])cn2)CC1', '< 80%'),
  ('O=C(c1cc(C(F)(F)F)cc(C(F)(F)F)c1)N1CCC(O)(c2ccc(Cl)cc2)CC1', '< 80%'),
  ('NC(=O)C1CCN(C(=O)c2ccc(Oc3cc(Cl)cc(Cl)c3)o2)CC1', '< 80%'),
  ('O=C1c2ccccc2C(=O)N1CCSCc1cccc(C(F)(F)F)c1', '100%'),
  ('O=C(Nc1ccc(F)cc1)Nc1cnn(-c2ccc([N+](=O)[O-])cc2)c1C(F)(F)F', '80 to 99%'),
  ('CCCCCc1cnc(-c2ccc(C#N)cc2)nc1', '100%'),
  ('Cc1ccc2oc(=O)n(CCC(N)=NOC(=O)c3ccccc3)c2c1', '< 80%'),
  ('N#CC(C#N)=NNc1ccc(C(F)(F)F)cc1', '100%'),
  ('Cc1nc2c(cnn2-c2ccccc2)c(=O)o1', '< 80%'),
  ('CCCCOc1ccc(-c2ccc(C#N)cc2)cc1 [MBHF-hit4, 4''-butoxy[1,1''-biphenyl]-4-carbonitrile]', '100%'),
  ('N#CC(=NNc1ccc(Cl)cc1Cl)C(=O)c1ccc(Cl)cc1', '100%'),
  ('COc1ccc(SCc2nsc(Sc3ccc(OC)cc3)n2)cc1', '80 to 99%'),
  ('CC1=CSC(=C(C#N)C(=O)c2ccccc2Cl)N1c1ccccc1Cl', '< 80%'),
  ('CS(=O)(=O)c1ccc2ccn(O)c2c1', '< 80%'),
  ('CSc1c(-c2ccc(Cl)cc2)[nH]c2ccccc12', '100%'),
  ('CC(C)c1cc(Br)c(NC(=O)NCc2ccco2)c(Br)c1', '< 80%'),
  ('C(#Cc1ccc(-c2cc[nH]n2)s1)c1ccccc1', '100%'),
  ('Clc1ccc(Oc2ccnc3cc(Cl)ccc23)cc1', '80 to 99%'),
  ('CSC(=NS(=O)(=O)c1ccc(C)cc1)N(C)C', '< 80%'),
  ('CC12NC(=O)NC1(C)NC(=O)N2 (stereo not drawn)', '< 80%'),
  ('CC(=O)c1ccc(NC(=O)CSc2nnc(-c3ccco3)n2C)cc1', '< 80%'),
  ('N#CC(=NNc1cccc(C(F)(F)F)c1)C(=O)c1csc(-c2cccnc2)n1', '< 80%'),
  ('O=S1(=O)CC=C(Cl)C1', '< 80%'),
  ('CCCc1ccc(-c2ccc(C#N)cc2)nc1', '< 80%'),
  ('CCOC(=O)c1ccc(Oc2ccc(Cl)cc2Cl)c([N+](=O)[O-])c1', '< 80%'),
  ('CCCc1ccc(-c2nc(-c3cccs3)no2)cc1', '80 to 99%'),
  ('CC(=NOc1nc(-c2ccccc2)ns1)c1cccs1', '< 80%'),
  ('OC(CNCCNc1nccc(C(F)(F)F)n1)c1ccccc1 (stereo not drawn)', '< 80%'),
  ('O=C(c1ccc(-c2cccs2)s1)c1ccc(F)cc1F', '100%'),
  ('COc1c(C(=O)NCc2ccc(Cl)cc2)csc1Cl', '< 80%'),
  ('O=[N+]([O-])c1ccc2c(c1)CCN2S(=O)(=O)c1ccccc1', '< 80%'),
  ('FC(F)(F)c1ccc(SCc2ccc(-c3ncns3)cc2)nc1', '80 to 99%');

Data credit: paper PMC9616048
